test_name: purified protein yield per well (BCA); higher = higher soluble expression
observable: purified protein yield per well

biopolymer_sequence="AANPYERGPAPTTAVLEAARGPFATTSAAIARTSSFGGGTVYYPTDTSQGTFGAVAISPGFSATQSSVAWYGPRLASHGFVVVTINTLSGWDDPDSRARQLLAALDYLTNTHAVRTRIDKTRLGVMGHSMGGGGALRASVSRPSLQAAIPLAPWHNTKNWSSDGVPTLIVGAENDTVAPVNQHAEPFYTSITGAPDKAYLELNNAGHSAPSSEGPNVTVGKFSVAWLKRFIDNDTRYEQFLCPAPRPDTRINEYRDTCPHS [TEP084]" observable="purified protein yield per well" result="< 25 µg"
biopolymer_sequence="ADNPYQRGPDPTRSSVAASRGTFATAQVGVPAGNGFGGGVIYYPTDTSQGTFGAVAIVPGYTAKWAAEGAWTGPWLASFGLVVIGIDTNSANDFDVARDRQLPAALDYLAQRGSVRGRVDTTRLAAMGHSMGGGGALNAALRRPSSKAAVGSAPYKPSGNLASDRVATLLLAGQNDTTVTPSYVDGLHRSIPATTEKGYVELSGAGHAFPTRANSTQMRVVTPWLKVFLDDDARYSQFLCPLMDSAGINRYGSTCPLLPPDGSTGSSSSLVGSGFGKCLDAGAGQDRSKVTITSCTGGGGQKWVFNTNGTITDPQSGRCLDVDARGTADNTAVATWTCHGESNQVWTRRA [ESM189]" observable="purified protein yield per well" result="< 25 µg"
biopolymer_sequence="LNPYQRGPNPTDAILEASSGPYATSSISVPSIVSGFGGGRIYYPTTTADGTFGGIAISPGFTATWSSLSWLGPRLASHGFVVIGIETNTIYDQPTSRGQQLLAALDYLVNTSSVRTRVDSSRLAVAGHSMGGGGTLWAANSRPSLQAAIPLAPWNTDKSWSGVRVPTLIVGGQSDTVAPVATHSIPFYTSIPAASEKAYLELRSASHFFPQTVNTTVAVSMVSWLKRYVDDDTRYDPWLCPGPSGLSVSDYRDTCPA [TEP178]" observable="purified protein yield per well" result="64.5 µg"
